These data points were gathered from patent US8445636B2.

- Test system: Pseudomonas aeruginosa ATCC 27853
- Format: cell-based
- Details: ATCC 27853, pH 7.4
Non-standard residues stand in square brackets, D forms with d. Residues, ends and D or L forms follow the SMILES beside them. *: point of attachment. Decanoyl = CCCCCCCCCC(=O)*
Reported Minimal Inhibitory Concentration, P. aeruginosa ATCC 27853 is given for each of the following molecules.

Molecule	Result
CCCCCCCCCC(=O)N[C@H](CC(C)C)C(=O)N[C@@H](CCCCN)C(=O)N[C@@H](CCCCN)C(=O)N[C@H](CC(C)C)C(=O)N[C@H](CC(C)C)C(=O)N[C@@H](CCCCN)C(=O)N[C@@H](CCCCN)C(=O)N[C@H](CC(C)C)C(=O)N[C@H](CC(C)C)C(=O)N[C@@H](CCCCN)C(=O)N[C@@H](CCCCN)C(=O)N[C@H](CC(C)C)C(N)=O [lipopeptide 21] (Decanoyl-[dL]KK[dL][dL]KK[dL][dL]KK[dL]-NH2)	12.5 µM

Consider the molecule "CCCCCCCCCCCCCCCC(=O)N[C@@H](CCCCN)C(N)=O" and give its measured Minimal Inhibitory Concentration, P. aeruginosa ATCC 27853.
>100 µM

----------
- Test system: Prostate cancer cell line 22RV1
- Protocol Description: Cytotoxicity, XTT viability
- Format: cell-based, human
- Details: 24 h incubation, read-out: LC50, Prostate cancer 22RV1
Non-standard residues stand in square brackets, D forms with d. Residues, ends and D or L forms follow the SMILES beside them. *: point of attachment. Lauroyl = CCCCCCCCCCCC(=O)*
Measured Property: CC50 (µM)
Respond numerically; units are µM and should not be typed.

Compound	CC50 [µM]
CC(C)C[C@@H](N)C(=O)N[C@@H](CCCNC(=N)N)C(=O)N[C@@H](CCCNC(=N)N)C(=O)N[C@H](CC(C)C)C(=O)N[C@H](CC(C)C)C(=O)N[C@@H](CCCNC(=N)N)C(=O)N[C@@H](CCCNC(=N)N)C(=O)N[C@H](CC(C)C)C(=O)N[C@H](CC(C)C)C(=O)N[C@@H](CCCNC(=N)N)C(=O)N[C@@H](CCCNC(=N)N)C(=O)N[C@H](CC(C)C)C(N)=O [DL6R6, LRRLLRRLLRRL, reference compound] (H-[dL]RR[dL][dL]RR[dL][dL]RR[dL]-NH2; N-terminus assumed)	50

Continue with the compound presented below.
I am curious: what CC50 value has been reported for CCCCCCCCCCCC(=O)N[C@H](CC(C)C)C(=O)N[C@@H](CCCNC(=N)N)C(=O)N[C@@H](CCCNC(=N)N)C(=O)N[C@H](CC(C)C)C(=O)N[C@H](CC(C)C)C(=O)N[C@@H](CCCNC(=N)N)C(=O)N[C@@H](CCCNC(=N)N)C(=O)N[C@H](CC(C)C)C(=O)N[C@H](CC(C)C)C(=O)N[C@@H](CCCNC(=N)N)C(=O)N[C@@H](CCCNC(=N)N)C(=O)N[C@H](CC(C)C)C(N)=O [lipopeptide 25] (Lauroyl-[dL]RR[dL][dL]RR[dL][dL]RR[dL]-NH2) ?
3.12

----------
Known Minimal Inhibitory Concentration, P. aeruginosa ATCC 27853 of a selection of compounds
- Test system: Pseudomonas aeruginosa ATCC 27853
- Format: cell-based
- Details: ATCC 27853, pH 7.4
- Procedure: The antibacterial activity of the lipopeptides was examined in sterile 96-well plates (Nunc F96 microtiter plates) in a final volume of 100 μl as follows: Aliquots (50 μl) of a suspension containing bacteria at concentration of 1×10^6 Colony-Forming Units (CFU)/ml in culture LB (Lauria broth) medium (pH 7.4 or pH 5.5) were added to 50 μl of water containing the lipopeptide in serial 2-fold dilutions in water. […] If not indicated otherwise, the bacterial growth was detected at pH 7.4.
Non-standard residues stand in square brackets, D forms with d. Residues, ends and D or L forms follow the SMILES beside them. *: point of attachment. Palmitoyl = CCCCCCCCCCCCCCCC(=O)*; Myristoyl = CCCCCCCCCCCCCC(=O)*
Write the number in µM without appending the unit.

These recorded examples may help you get a feel for the data.
Compound	Numeric Value
CCCCCCCCCCCCCCCC(=O)N[C@H](CCCCN)C(=O)NCC(=O)NCC(=O)NCC(=O)N[C@H](CCCCN)C(=O)NCC(=O)NCC(=O)NCC(=O)N[C@H](CCCCN)C(=O)NCC(=O)NCC(=O)N[C@H](CCCCN)C(N)=O [lipopeptide 2] (Palmitoyl-[dK]GGG[dK]GGG[dK]GG[dK]-NH2)	6.25
CCCCCCCCCCCCCC(=O)N[C@H](CC(C)C)C(=O)N[C@@H](CCCCN)C(=O)N[C@@H](CCCCN)C(=O)N[C@H](CC(C)C)C(=O)N[C@H](CC(C)C)C(=O)N[C@@H](CCCCN)C(=O)N[C@@H](CCCCN)C(=O)N[C@H](CC(C)C)C(=O)N[C@H](CC(C)C)C(=O)N[C@@H](CCCCN)C(=O)N[C@@H](CCCCN)C(=O)N[C@H](CC(C)C)C(N)=O [lipopeptide 23] (Myristoyl-[dL]KK[dL][dL]KK[dL][dL]KK[dL]-NH2)	50

For CCCCCCCCCCCCCCCC(=O)N[C@@H](CCCCN)C(=O)N[C@H](CCCCN)C(N)=O [PA-KK, Palmitoyl-Lys-D-Lys-NH2] , what is its reported Minimal Inhibitory Concentration, P. aeruginosa ATCC 27853?
100

----------
- Test system: Cryptococcus neoformans ATCC 66031
- Protocol Description: microbe, parasite or virus in culture
- Type: cell-based
- Details: ATCC 66031, pH 5.5; read-out: Minimal inhibitory concentrations, C. Neofor. Without serum
Non-standard residues stand in square brackets, D forms with d. Residues, ends and D or L forms follow the SMILES beside them. *: point of attachment. Lauroyl = CCCCCCCCCCCC(=O)*
Measured Property: MIC (µM)
Respond numerically; units are µM and should not be typed.

Reported MIC, molecule CCCCCCCCCCCC(=O)N[C@H](CC(C)C)C(=O)N[C@@H](CCCNC(=N)N)C(=O)N[C@@H](Cc1c[nH]cn1)C(=O)N[C@H](CC(C)C)C(=O)N[C@H](CC(C)C)C(=O)N[C@@H](CCCNC(=N)N)C(=O)N[C@@H](Cc1c[nH]cn1)C(=O)N[C@H](CC(C)C)C(=O)N[C@H](CC(C)C)C(=O)N[C@@H](CCCNC(=N)N)C(=O)N[C@@H](Cc1c[nH]cn1)C(=O)N[C@H](CC(C)C)C(N)=O [lipopeptide 27] (Lauroyl-[dL]RH[dL][dL]RH[dL][dL]RH[dL]-NH2) : ____
1.56

----------
- Tested on: Acinetobacter baumannii ATCC 19606
- Assay type: cell-based
- Details: ATCC 19606, pH 7.4
Non-standard residues stand in square brackets, D forms with d. Residues, ends and D or L forms follow the SMILES beside them. *: point of attachment. Palmitoyl = CCCCCCCCCCCCCCCC(=O)*
Measured Minimal Inhibitory Concentration, A. baumannii ATCC 19606 by item

Compound	Result
CCCCCCCCCCCCCC(=O)N[C@@H](CCCCN)C(=O)N[C@@H](CCCCN)C(=O)N[C@@H](CCCCN)C(N)=O [MYR-KKK]	>100 µM
CCCCCCCCCCCCCCCC(=O)N[C@@H](CCCCN)C(=O)N[C@@H](C)C(=O)N[C@H](C)C(=O)N[C@@H](CCCCN)C(N)=O [PA-KAAK, Palmitoyl-Lys-Ala-D-Ala-Lys-NH2] (Palmitoyl-KA[dA]K-NH2)	100 µM

Requested field: Minimal Inhibitory Concentration, A. baumannii ATCC 19606. Item: CCCCCCCCCCCCCCCC(=O)N[C@@H](CCCCN)C(=O)N[C@H](C(=O)N[C@@H](C(=O)N[C@@H](C(=O)N[C@@H](CCCCN)C(=O)N[C@H](C(=O)N[C@H](C(=O)N[C@@H](C(=O)N[C@@H](CCCCN)C(=O)N[C@@H](C(=O)N[C@H](C(=O)N[C@@H](CCCCN)C(N)=O)C(C)C)C(C)C)C(C)C)C(C)C)C(C)C)C(C)C)C(C)C)C(C)C [lipopeptide 7] (Palmitoyl-KV[dV][dV]KVV[dV]K[dV]VK-NH2)
>100 µM

Record: CCCCCCCCCCCCCCCC(=O)N[C@@H](CCC(=O)O)C(=O)N[C@@H](CCCCN)C(=O)N[C@H](CCCCN)C(=O)N[C@@H](CCCCN)C(N)=O [PA-EKKK, Palmitoyl-Glu-Lys-D-Lys-Lys-NH2] (Palmitoyl-EK[dK]K-NH2)
>100 µM

Repeat for the following compound: CC(C)[C@H](NC(=O)[C@H](CCCCN)NC(=O)[C@H](NC(=O)[C@H](NC(=O)[C@@H](NC(=O)[C@@H](N)CCCCN)C(C)C)C(C)C)C(C)C)C(=O)N[C@H](C(=O)N[C@@H](C(=O)N[C@@H](CCCCN)C(=O)N[C@@H](C(=O)N[C@H](C(=O)N[C@@H](CCCCN)C(N)=O)C(C)C)C(C)C)C(C)C)C(C)C [DK4V8, reference compound] (H-KV[dV][dV]KVV[dV]K[dV]VK-NH2; N-terminus assumed)
>100 µM

Here is the next compound: CCCCCCCCCCCCCCCC(=O)N[C@@H](CCCCN)C(=O)N[C@H](CCCCN)C(=O)N[C@@H](CCC(=O)O)C(=O)N[C@@H](CCCCN)C(N)=O [PA-KKEK, Palmitoyl-Lys-D-Lys-Glu-Lys-NH2] (Palmitoyl-K[dK]EK-NH2)
100 µM

Try this compound next: CCCCCCCCCCCCCCCC(=O)N[C@@H](CCCNC(=N)N)C(=O)N[C@@H](CC(C)C)C(=O)N[C@H](CC(C)C)C(=O)N[C@@H](CCCNC(=N)N)C(N)=O [PA-RLLR, Palmitoyl-Arg-Leu-D-Leu-Arg-NH2] (Palmitoyl-RL[dL]R-NH2)
>100 µM
